- measurement.protocol: qHTS for differential inhibitors of proliferation of Plasmodium falciparum line 3D7 (AID 1876)
- measurement.conditions: P. falciparum 3D7 proliferation inhibition; series mostly up to 28.7 µM
Inconclusive results are not listed. Calls of active or inactive are those of the source. Calls come from the whole dose curve; as a rule, active = well fitted curve in the direction sought with a large enough effect; inconclusive = small, poorly fitted or top-dose-only effect, or another doubt; inactive = no such curve, though single readings can be large or run the other way.
One label from this list, please: class 1 = active, class 0 = inactive

compound | class.assignment
CCCN1CCC[C@@H]2Cc3nc(N)ncc3C[C@H]21 | class 0
O=c1[nH]cc(F)c(=O)[nH]1 | class 1
COC[C@H]1OC(=O)c2coc3c2[C@@]1(C)C1=C(C3=O)C2CCC(=O)[C@@]2(C)C[C@H]1OC(C)=O (stereo partly specified) | class 1
CC[N+](CC)(CC)CC | class 1
Fc1ccc(C(OCCN2CCN(CCCc3ccccc3)CC2)c2ccc(F)cc2)cc1 | class 1

Next up:
-- ask Outcome logged for Nc1ccncc1 in this assay:
-- reply class 0

* * *

# Lookup of reported activation keyed by entry
- measurement.protocol: qHTS assay for environmental chemicals that activate the Aryl hydrocarbon Receptor (AhR) signaling pathway (AID 651777); note: % of control where 0% means no effect; nearly all actives have a fitted effect of over 15% in size
- measurement.conditions: 1A2-DRE human hepatoma cells, luciferase, 24 h; active compounds read high
Records with an inconclusive call do not appear.
Answer with a number only, understood to be in %.

-- ask Give activation for the following compound: C[C@]12CCC(=O)C(O)=C1CC[C@@H]1[C@@H]2CC[C@]2(C)C(=O)CC[C@@H]12
-- reply 0.0711

* * *

- measurement.conditions: Ebola virus entry assay, green fluorescence channel
Results with a measured potency or affinity are listed apart.
# Lookup of reported efficacy keyed by entry
Answer with a number only, understood to be in %.

// known answers, use as guide
molecule | efficacy / %
Clc1ccc(C(c2ccccc2Cl)C(Cl)Cl)cc1 (stereo not given) | -31.8
Oc1ccc(C2CNCCc3c2cc(O)c(O)c3Cl)cc1 (stereo not given) | 16.5
CCN(C(C)=O)c1cccc(-c2ccnc3c(C#N)cnn23)c1 | 22.6
CC[C@H](C)C(=O)O[C@H]1C[C@@H](C)C=C2C=C[C@H](C)[C@H](CC[C@@H]3C[C@@H](O)CC(=O)O3)[C@H]21 | 16.1
CN1C[C@H](CNC(=O)OCc2ccccc2)C[C@@H]2c3cccc4c3c(cn4C)C[C@H]21 | 74.4

-- ask Give efficacy for the following molecule: CCN(CC)C(=S)SSC(=S)N(CC)CC
-- reply -47.8

-- ask Give efficacy for the following molecule: O=C1NC(=O)C(c2ccccc2)(c2ccccc2)N1
-- reply 9.61

* * *

- measurement.protocol: qHTS assay for small molecule agonists of the antioxidant response element (ARE) signaling pathway (AID 651741); for activation: % of control where 0% means no effect
- measurement.conditions: HepG2 ARE-bla reporter, beta-lactamase FRET ratio, 16 h; series mostly up to 96 µM
Results filed as inconclusive are left out. The source made the active and inactive calls. Calls follow the shape of the dose curve; as a rule, active = well fitted activation curve with a large enough effect in the signal ratio; inconclusive = small, poorly fitted or top-dose-only effect, or effect the other way, or a change in a side signal; inactive = flat fitted curve, though single readings scatter; the % refers to the signal ratio.
One label from this list, please: t = active, f = inactive

Please review the following examples before continuing.
compound | class.assignment
CNCC(O)c1ccc(O)cc1 (stereo unspecified) | f
Cc1cc(SCc2sc(-c3ccc(C(F)(F)F)c(F)c3)nc2C)ccc1OCC(=O)O | t
Oc1cc(Cl)ccc1Oc1ccc(Cl)cc1Cl | t
CCOP(=S)(OCC)Oc1cc(C)nc(C(C)C)n1 | f
O=c1oc2ccccc2c(O)c1C(CC(O)c1ccc(-c2ccc(Br)cc2)cc1)c1ccccc1 (stereo unspecified) | t
OCCOc1ccccc1 | f
CC(=O)Oc1ccccc1C(=O)Nc1ncc([N+](=O)[O-])s1 | t
c1ccc2c(c1)Nc1ccccc1S2 | t
C[C@]12CCC(=O)C(O)=C1CC[C@@H]1[C@@H]2CC[C@]2(C)C(=O)CC[C@@H]12 | f
CCCC(C)(COC(N)=O)COC(=O)NC(C)C (stereo unspecified) | f

Next up:
-- ask Outcome logged for NCC(O)c1ccc(O)cc1 (stereo unspecified) in this assay:
-- reply f

* * *

- measurement.protocol: qHTS of pediatric cancer cell lines to identify multiple opportunities for drug repurposing: Primary screen for RD cells (AID 1347104);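 note: plate controls were DMSO for no effect and bortezomib for full effect; nearly all actives have a fitted effect of over 55% in size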
- measurement.conditions: RD rhabdomyosarcoma viability, CellTiter-Glo luminescence, 48 h; series mostly up to 46 µM
Records with an inconclusive call do not appear. Active and inactive are the calls of the source. The call rests on the fitted dose curve; in most records, active means well fitted cell-killing curve with a large enough effect; inconclusive means small, poorly fitted or top-dose-only effect; inactive means flat fitted curve, though single readings scatter.
assay.endpoint: outcome

// known answers, use as guide
compound | outcome
CCCN1CCC[C@@H]2Cc3[nH]ncc3C[C@H]21 | inactive
NCC1(CC(=O)O)CCCCC1 | inactive
COC1(CS(=O)c2ccccc2)CCN(CCc2c[nH]c3ccc(F)cc23)CC1 (stereo unspecified) | inactive
C#CCOC(C(=O)OCCN(C)C)(c1ccccc1)c1ccccc1 | inactive

-- ask Give outcome for the following compound: CCCN1CCC[C@@H]2Cc3nc(N)ncc3C[C@H]21
-- reply inactive

-- ask Give outcome for the following compound: CC1OC(C)OC(C)O1 (stereo unspecified)
-- reply inactive

* * *

- Test system: CP217
- measurement.protocol: qHTS profiling for inhibitors of Plasmodium falciparum proliferation (AID 504749); note: nearly all actives have a fitted effect of over 60% in size
- measurement.conditions: P. falciparum in erythrocytes, SYBR Green DNA, 72 h; series mostly up to 28.7 µM
Records with an inconclusive call do not appear. Active and inactive are the calls of the source. The call rests on the fitted dose curve; in most records, active means well fitted inhibition curve with a large enough effect; inconclusive means small, poorly fitted or top-dose-only effect; inactive means flat fitted curve, though single readings scatter.

smiles.text | outcome
CC(C)(C)CC(C)(C)c1ccc(O)cc1 | inactive
CN1CCN(C(=O)O[C@H]2c3nccnc3C(=O)N2c2ccc(Cl)cn2)CC1 | inactive
NN=C(N)N | inactive

* * *

- measurement.protocol: qHTS of pediatric cancer cell lines to identify multiple opportunities for drug repurposing: Primary screen for BT-37 cells (AID 1347094)
- measurement.conditions: BT-37 viability, CellTiter-Glo luminescence, 48 h; series mostly up to 57.3 µM
Results filed as inconclusive are left out. Calls of active or inactive are those of the source. The call rests on the fitted dose curve; in most records, active means well fitted cell-killing curve with a large enough effect; inconclusive means small, poorly fitted or top-dose-only effect; inactive means flat fitted curve, though single readings scatter.
One label from this list, please: active, inactive

compound | class.assignment
CO[C@]12CC[C@@]3(C[C@@H]1[C@](C)(O)C(C)(C)C)[C@@H]1Cc4ccc(O)c5c4[C@@]3(CCN1CC1CC1)[C@H]2O5 | active

-- ask Outcome logged for CCC(COC(=O)c1cc(OC)c(OC)c(OC)c1)(c1ccccc1)N(C)C (centres undefined) in this assay:
-- reply inactive

-- ask Outcome logged for CCC1(C2=NCCN2)Cc2ccccc2O1 (centres undefined) in this assay:
-- reply inactive

-- ask Outcome logged for O=C1CC[C@@]2(O)[C@H]3Cc4ccc(O)c5c4[C@@]2(CCN3CC2CC2)[C@H]1O5 in this assay:
-- reply inactive

* * *

- System: PAD
- measurement.protocol: qHTS profiling for inhibitors of Plasmodium falciparum proliferation (AID 504749); note: nearly all actives have a fitted effect of over 60% in size
- measurement.conditions: P. falciparum in erythrocytes, SYBR Green DNA, 72 h; series mostly up to 28.7 µM
- Protocol: NIH National Institute of Allergy and Infectious Diseases [NIAID] NIH Chemical Genomics Center [NCGC] […] Because mature erythrocytes lack DNA, only Plasmodium-derived DNA is detected. NCGC Assay Protocol Summary: The SYBR Green viability assay was adapted from a method described previously (Plouffe et al., 2008). […] The following morning, fluorescence intensity at 485(14) nm excitation and 535(25) nm emission wavelengths was measured on an EnVision (Perkin Elmer) plate reader. […]
Records with an inconclusive call do not appear. Active and inactive are the calls of the source. Calls follow the shape of the dose curve; as a rule, active = well fitted inhibition curve with a large enough effect; inconclusive = small, poorly fitted or top-dose-only effect; inactive = flat fitted curve, though single readings scatter.
One label from this list, please: active, inactive

compound | class.assignment
CC(C)(N)Cc1ccc(Cl)cc1 | inactive
Clc1ccc(COC(Cn2ccnc2)c2ccc(Cl)cc2Cl)cc1 (stereo not drawn) | active
Cn1c(CCCC(=O)O)nc2cc(N(CCCl)CCCl)ccc21 | inactive
NN=C(N)N | inactive
c1ccc2c(c1)OCC(C1=NCCN1)O2 (stereo not drawn) | inactive

-- ask Outcome logged for CC1NCCOC1c1ccccc1 (stereo not drawn) in this assay:
-- reply inactive

-- ask Outcome logged for CC[N+]1(C)CCCC(OC(=O)C(O)(c2ccccc2)c2ccccc2)C1 (stereo not drawn) in this assay:
-- reply inactive

-- ask Outcome logged for CN1CCN(C(=O)O[C@H]2c3nccnc3C(=O)N2c2ccc(Cl)cn2)CC1 in this assay:
-- reply inactive

-- ask Outcome logged for N#CC(C#N)=Cc1ccc(O)c(O)c1 in this assay:
-- reply inactive

-- ask Outcome logged for CC[C@@H](CO)NC(=O)[C@@H]1C=C2c3cccc4[nH]cc(c34)C[C@H]2N(C)C1 in this assay:
-- reply inactive

-- ask Outcome logged for CC(=O)[C@H]1CC[C@H]2[C@@H]3CC[C@H]4C[C@H](O)CC[C@]4(C)[C@H]3C(=O)C[C@]12C in this assay:
-- reply inactive

-- ask Outcome logged for O=C(NC(O)C(Cl)(Cl)Cl)NC(O)C(Cl)(Cl)Cl (stereo not drawn) in this assay:
-- reply inactive

-- ask Outcome logged for Oc1ccccc1-c1ccccc1 in this assay:
-- reply inactive

* * *

- measurement.protocol: Identifying Small Molecule Inhibitors of Pancreatic Cancer Stem Cells (SN12C, Spheroid) (AID 1259360)
- measurement.conditions: SN12C spheroid viability; series mostly up to 46.1 µM
Records with an inconclusive call do not appear. The source made the active and inactive calls. Calls come from the whole dose curve; as a rule, active = well fitted cell-killing curve with a large enough effect; inconclusive = small, poorly fitted or top-dose-only effect, or effect the other way; inactive = flat fitted curve, though single readings scatter.
One label from this list, please: active, inactive

compound | class.assignment
CCCCC/C=C\C/C=C\C/C=C\C/C=C\CCCC(=O)NC1CC1 | inactive
Cn1c(CCCC(=O)O)nc2cc(N(CCCl)CCCl)ccc21 | inactive
CNC(=O)N1N=C(c2ccc(N)cc2)c2cc3c(cc2CC1C)OCO3 (stereo not drawn) | inactive

-- ask Outcome logged for CN(C)CCN(C)CCc1ccc(Cl)c(Cl)c1 in this assay:
-- reply active

-- ask Outcome logged for CC1=C2C[C@@H]3[C@@H](CC=C4C[C@@H](O)CC[C@@]43C)[C@@H]2CC[C@]12O[C@H]1C[C@H](C)CN[C@H]1[C@H]2C in this assay:
-- reply inactive

-- ask Outcome logged for C[C@]12CCC(=O)C(O)=C1CC[C@@H]1[C@@H]2CC[C@]2(C)C(=O)CC[C@@H]12 in this assay:
-- reply inactive

-- ask Outcome logged for COC[C@H]1OC(=O)c2coc3c2[C@@]1(C)C1=C(C3=O)C2CCC(=O)[C@@]2(C)C[C@H]1OC(C)=O (stereo partly drawn) in this assay:
-- reply active

-- ask Outcome logged for O=C(O)C(=O)c1cn(Cc2ccccc2)c2ccc(-c3ccc(OC(F)(F)F)cc3)cc12 in this assay:
-- reply active
